# test_protocol: Solubility of the compound at 100 uM
# Format: physicochemical
measured_property: solubility

smiles_repr: S=C(Nc1ccccc1)Nc1ccc2[nH]ccc2c1
solubility: Soluble

smiles_repr: Oc1cccc(NC(=S)Nc2ccc3[nH]ccc3c2)c1
solubility: Soluble

smiles_repr: COC(=O)c1cc(NC(=S)Nc2ccc3[nH]ccc3c2)ccc1O
solubility: Soluble

smiles_repr: CC(=O)c1ccc(NC(=S)Nc2ccc3[nH]ccc3c2)cc1
solubility: Soluble

Give its solubility value. Item: "COc1ccc(NC(=S)Nc2ccc3[nH]ccc3c2)cc1OC"
Soluble

Would you mind doing "Oc1ccccc1NC(=S)Nc1ccc2[nH]ccc2c1" as well?
Soluble

---

# assay_target: Amine oxidase [flavin-containing] A (Homo sapiens, UniProt P21397)
# Sequence (P21397 whole entry): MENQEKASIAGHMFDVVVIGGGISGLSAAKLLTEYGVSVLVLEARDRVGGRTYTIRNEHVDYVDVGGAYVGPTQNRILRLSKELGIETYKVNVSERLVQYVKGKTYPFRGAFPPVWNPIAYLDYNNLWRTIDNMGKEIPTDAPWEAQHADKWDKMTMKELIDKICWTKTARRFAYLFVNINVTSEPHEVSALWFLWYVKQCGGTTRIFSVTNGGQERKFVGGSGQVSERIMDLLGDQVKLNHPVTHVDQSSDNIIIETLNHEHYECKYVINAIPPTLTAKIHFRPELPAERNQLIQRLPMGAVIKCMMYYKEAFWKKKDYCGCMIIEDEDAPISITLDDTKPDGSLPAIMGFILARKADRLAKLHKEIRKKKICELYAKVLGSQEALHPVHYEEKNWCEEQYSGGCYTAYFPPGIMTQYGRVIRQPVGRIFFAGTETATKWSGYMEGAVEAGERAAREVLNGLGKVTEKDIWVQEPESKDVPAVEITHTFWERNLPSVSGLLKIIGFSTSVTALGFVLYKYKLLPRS
# test_protocol: Inhibition of human membrane bound MAO-A expressed in insect cell membranes assessed as reduction in conversion of kynuramine to 4-hydroxyquinoline by spectrophotometric assay
# applied_conditions: read-out: IC50
Would you mind telling me the reported IC50 of each entry?

Write down the reported IC50 of "Oc1c(Cl)cc(NC(=S)Nc2ccc3[nH]ccc3c2)cc1Cl" , test system: Amine oxidase [flavin-containing] A (Homo sapiens, UniProt P21397).
> 100 µM

Now the molecule "COC(=O)c1cc(NC(=S)Nc2ccc3[nH]ccc3c2)ccc1O"
> 100 µM

Similarly, "Oc1ccc(NC(=S)Nc2ccc3[nH]ccc3c2)cc1" ?
> 100 µM
